Origin of values: PubChem BioAssay (NCI)

Test system: NCI-H522 lung
assay: NCI-60 one-dose screen, 48 h (100 = growth as untreated, 0 = no growth, -100 = all killed)
condition_set: 10 µM
Method: Growth inhibition of the NCI-H522 human Non-Small Cell Lung tumor cell line is measured as a screen for anti-cancer activity. Cells are grown in 96 well plates and exposed to the test compound for 48 hours. Compounds are tested at a single concentration, which is 10^-5 M for most compounds. The reported endpoint is percent growth (GI% or GIPRCNT), where numbers from 0 - 100% represent growth inhibition, and numbers from -100% - 0 represent cell death. […]
About 83,000 compounds went through this panel and 20% of them were active in at least one assay; those are over-represented in the sample as a whole.

| molecule | growth [%] |
| --- | --- |
| CCOc1ccc(-n2cc(-c3ccc(N(C)C)cc3)[n+]3c2CCCCC3)cc1 | -0.392 |
| FC(F)(F)c1ccc(-c2nc(-c3nc4cc(Cl)c(Cl)cc4[nH]3)c3ccccn23)cc1 | 74.8 |
| COCCOC(=O)NC(=O)Nc1ccc(/C(=N/O)c2ccc(Cl)cc2)cc1 | -38.3 |
| COc1cccc2c1C(=O)c1c(O)c3c(c(O)c1C2=O)C[C@@](O)(C(=O)COC(=O)c1cccnc1)C[C@@H]3OC1CC(N)C(O)C(C)O1 (stereo partly specified) | -75.6 |
| CC(C)(C)c1ccc(OCCCCCCN2CCNCC2)cc1 | 66.2 |
| CCN(CC)c1ccc(/C=C/C2=[N+](C)c3ccccc3C2(C)C)c(C)c1 | -14.4 |
| C#CCNCCCN1C(=O)c2ccc3c4c(ccc(c24)C1=O)C(=O)N(CCCNCC#C)C3=O | -78.4 |
| COc1cc(-c2nc3ccccc3[nH]2)ccc1OCC(=O)N=Nc1c(O)[nH]c2ccccc12 | 80.1 |
| COc1ccc(C(=O)c2sc3nc(-c4cccs4)ccc3c2N)cc1OC | 24 |
| COc1cc2nc(Sc3sc(N)nc3C)n(-c3ccc(Oc4ccccc4)cc3)c(=O)c2cc1OC | 83.7 |
| CCCC(C)c1ccc(OCCCCCCN2CCNCC2)cc1 (stereo unspecified) | 3.3 |
| CCCCCCCCCCCCCCCCn1cc[n+](C)c1 | -87.4 |
| COc1ccc(Nc2ccnc(N3CCN(c4ccnc5cc(Cl)ccc45)CC3)n2)cc1 | -17.9 |
| COc1ccc(-c2nnc(N3CCN(C(=O)CN4CCN(c5ccc(Cl)cc5)CC4)CC3)nc2-c2ccc(OC)cc2)cc1 | 69.8 |
| c1ccc(C2CCCCC2)c(OCCCCCN2CCNCC2)c1 | 60.8 |
| Cn1c([N+](=O)[O-])cnc1C=C1C(=O)c2ccccc2C1=O | 3.27 |
| Nc1ncncc1-c1ccc(F)cc1 | 119 |
| COc1cc(C)c2sc3ccccc3c(=O)c2c1NCCN(C)C | 80.1 |
| O=[N+]([O-])c1ccc(Br)o1 | 84.4 |
| O=C(c1ccccc1)C(Sc1ccccc1)c1ccccc1 (stereo unspecified) | 62.4 |
| COC(=O)[C@]12CC[C@@H](C)[C@H](C)[C@@H]1C1=CC[C@@H]3[C@@]4(C)CC(=O)[C@H](O)[C@@](C)(CO)[C@@H]4C(=O)C[C@@]3(C)[C@]1(C)CC2 | -65.9 |

====

Tested on: SF-295 CNS
assay: NCI-60 one-dose screen, 48 h (100 = growth as untreated, 0 = no growth, -100 = all killed)
condition_set: 10 µM
About 83,000 compounds went through this panel and 20% of them were active in at least one assay; those are over-represented in the sample as a whole.
Recorded measurements of growth, one per entry
parameter: growth (%)

| compound | study_target | parameter | measurement |
| --- | --- | --- | --- |
| COc1ccc(/C(=C/c2cc(OC)c(OC)cc2[N+](=O)[O-])C(=O)O)cc1 | SF-295 CNS | growth | 121 |
| O=C(N/N=C\c1cc(Cl)ccc1O)c1ccncc1 | SF-295 CNS | growth | 77.2 |
| COc1ccc(-c2nsc3c2NC(=O)CC3c2cccc(Cl)c2)cc1 (centres undefined) | SF-295 CNS | growth | 5.03 |
| Cc1cc(C)c(/C=C2\C(=O)Nc3ccc(NC(=O)CCCCCCC(=O)NO)cc32)[nH]1 | SF-295 CNS | growth | 30 |
| CCOC(=O)CSC(=S)SCC(=O)OCC | SF-295 CNS | growth | 103 |
| Nc1ccc(C2=CC(c3ccc(Cl)cc3)N3C=CSC3=N2)cc1 (centres undefined) | SF-295 CNS | growth | -0.33 |
| COc1ccc(C(=O)/C=C/c2cc(-c3ccc4c(c3)OCO4)n[nH]2)cc1OC | SF-295 CNS | growth | 53.4 |
| c1ccc(C2CCCCC2)c(OCCCCCN2CCNCC2)c1 | SF-295 CNS | growth | 63.5 |
| O=C(Nc1ccc(OCc2nnc(-c3ccccc3)o2)c(F)c1)Nc1ccc(Cl)c(Cl)c1 | SF-295 CNS | growth | 39.4 |
| CCCN(CCC)CCCNC(=O)c1cc2c(-c3ccc(OC)c(OC)c3)nn(C)c2s1 | SF-295 CNS | growth | 35 |
| O=C(O)c1cc(C(F)(F)F)cc(C(F)(F)F)c1 | SF-295 CNS | growth | 102 |
| CCCCCCCCCCCC(=O)NCCCN(C)C | SF-295 CNS | growth | 95.6 |
| O=C1NN(c2ccccc2)C(c2cccnc2)=N/C1=C\c1cccnc1 | SF-295 CNS | growth | 95.1 |
| COc1ccc(C(C)=O)cc1N1C(=O)C2C(C1=O)C1(c3ccccc3)C(=O)C2(c2ccccc2)C(c2ccc(C)cc2)=C1c1ccc(C)cc1 (centres undefined) | SF-295 CNS | growth | 1.18 |
| O=c1[nH]c(=O)n(C2C[C@@H](O)[C@@H](CO)O2)cc1F (some centres undefined) | SF-295 CNS | growth | 8.65 |
| CCCCCCCC/C=C/CCCCCCCCC1=NCCN1CCO | SF-295 CNS | growth | 39.6 |
| COc1cc([C@@H]2c3cc4c(cc3[C@H](SC(=N)N)[C@H]3COC(=O)[C@H]23)OCO4)cc(OC)c1OC | SF-295 CNS | growth | -20.4 |
| CS(=O)(=O)Nc1ccc(OCc2nnc(-c3ccc(Cl)cc3)o2)c(F)c1 | SF-295 CNS | growth | 94.1 |
| Nc1ccc(Sc2ccc3c4c2cccc4c(=O)n2c4ccccc4nc32)cc1 | SF-295 CNS | growth | 12 |
| CCCCn1c(=O)[nH]c2c(c1=O)C(c1ccc(Cl)cc1)c1c([nH]c(=O)n(CCCC)c1=O)N2 | SF-295 CNS | growth | 89.8 |
| Nc1cc(O)cc(O)c1 | SF-295 CNS | growth | 94.9 |
| CC[C@@]1(C(N)=O)CC2C=CC1C2 (some centres undefined) | SF-295 CNS | growth | 110 |
| Cc1cc(Cl)ccc1Nc1nc(C(F)(F)F)ccc1C(=O)N/N=C/c1ccccc1Cl | SF-295 CNS | growth | 8.72 |
| O=C(/C=C/c1nnc2n(Cc3ccccc3)c(=O)c3c4c(sc3n12)CCCC4)c1ccccc1 | SF-295 CNS | growth | 40.4 |
| O=C(CCCC(=O)N/N=C/c1cc(Cl)ccc1O)N/N=C\c1cc(Cl)ccc1O | SF-295 CNS | growth | -5.9 |
| CCCCCCCCCCCCCCCC(=O)N1CCN(C)CC1 | SF-295 CNS | growth | 83.7 |
| COc1cc(Cl)cc(-c2nn(-c3cccc(NC(=O)Nc4cccc(C(F)(F)F)c4)c3)cc2-c2ccncc2)c1 | SF-295 CNS | growth | -7.87 |
| C[C@@H]1C(=O)N(C[C@H](Cc2ccccc2)NC(=O)OCc2ccccc2)[C@]1(Cc1ccccc1)C(=O)OCc1ccccc1 | SF-295 CNS | growth | 30 |
| C=CCn1ccc(=O)nc1SC | SF-295 CNS | growth | 107 |
| Cc1ccc2nc3[nH]c(=O)[nH]c(=O)c3c(N)c2c1 | SF-295 CNS | growth | 90.9 |
| O=[N+]([O-])c1ccc(-c2nc(-c3ccccc3)c(-c3ccccc3)n2-c2ccccc2)cc1 | SF-295 CNS | growth | 16.6 |
| O=C(Cn1ccc(=O)[nH]c1=O)c1ccc([N+](=O)[O-])o1 | SF-295 CNS | growth | 92.7 |
| CC1(C)CC(=O)c2c(nc3ccc(Cl)cc3c2-c2ccccc2)C1 | SF-295 CNS | growth | 76 |
| CC(=O)Nc1ccc(Sc2ccc(NC(C)=O)cc2)cc1 | SF-295 CNS | growth | 102 |
| CC(Oc1ccc(Cl)cc1)c1ccccc1 (centres undefined) | SF-295 CNS | growth | 96 |
| CC(=O)n1nc(C(=O)OC(C)(C)C)c2cc(F)c(F)cc21 | SF-295 CNS | growth | 101 |
| CN(C)c1ccc2cc(-c3cc4c(oc3=O)-c3ccccc3OC4O)c(=O)oc2c1 (centres undefined) | SF-295 CNS | growth | -56.4 |
| COCc1cc2c(cc1Br)OCO2 | SF-295 CNS | growth | 99.1 |
| CCSc1nc2c([nH]1)c(=O)n(C)c(=S)n2C | SF-295 CNS | growth | 114 |
| COc1cc(N=C2C(=O)N(Cc3ccccc3)c3ccccc32)cc(OC)c1OC | SF-295 CNS | growth | 94.3 |
| O=c1c2cccc3c(Nc4ccc(Br)cn4)ccc(c32)c2nc3ccccc3n12 | SF-295 CNS | growth | 87.1 |
| COc1cc2c3c(cccc3c1)C(=O)N(CCN1CCCC1)C2=O | SF-295 CNS | growth | 40.2 |
| COc1cc(NS(C)(=O)=O)ccc1Nc1c2ccc(Cl)cc2nc2c(OC)cccc12 | SF-295 CNS | growth | 14.5 |
| CCCCc1ccc(NC(=O)N(CCCl)N=O)cc1 | SF-295 CNS | growth | 73.9 |
